System: bovine tubulin
Assay: In vitro tubulin polymerization assay (turbidity at 340 nm)
Format: biochemical
Conditions: 10 μM compound, 30 minute data point, vs 1% DMSO control
Reported Tubulin Assay: percent inhibition at 10 μM based on 30 minute data by item:
result_type: Tubulin Assay: percent inhibition at 10 μM based on 30 minute data (%)

1) COc1ccc(Nc2nnc(-c3cccnc3Nc3ccc4cn[nH]c4c3)[nH]2)c(OC)c1 [Compound 22] :: 24
2) COc1cc(Nc2nnc(-c3cccnc3NCc3ccc4c(c3)OCO4)[nH]2)cc(OC)c1 [Compound 16] :: 41
3) COc1cc(CNc2ccccc2-c2nnc(-c3ccc(C(F)(F)F)cc3)[nH]2)cc(OC)c1 [Compound 140] :: 20
4) COc1cc(Nc2ncccc2-c2nnc(Nc3cc(OC)ccc3OC)[nH]2)cc(OC)c1 [Compound 5] :: 20
